- MEASUREMENT PROTOCOL: xn = mol fraction of the nth substance listed, in the solute-free solvent
- MEASUREMENT PARAMETERS: 293.15 K; x2 = 0.03225
// solubility (g/100 g solution) lookup, one value per entry
# print the numeric value only

In the examples that follow, each entry is paired with its recorded solubility (g/100 g solution).
O=[N+]([O-])c1cc[nH]n1 + CCCO + O: 0.477
CS(=O)(=O)c1ccc(C(O)C(CF)NC(=O)C(Cl)Cl)cc1 (centres undefined) + CC(C)O + O: 0.189
CC(=O)Nc1ccc(OC(=O)c2ccccc2OC(C)=O)cc1 + CC(C)O + O: 0.00819

// below: solubility (g/100 g solution) requested for another compound
Memo: COC(=O)C1=C(C)NC(C)=C(C(=O)OCC(C)C)C1c1ccccc1[N+](=O)[O-] (centres undefined) + CCCO + O , reported solubility (g/100 g solution): 0.268

###

- MEASUREMENT PROTOCOL: xn = mol fraction of the nth substance listed, in the solute-free solvent
- MEASUREMENT PARAMETERS: 313.15 K; x2 = 0.7297
ASSAY METRIC: solubility (g/100 g solution)
Number only, no unit.

CC(=O)Nc1ccc(OC(=O)c2ccccc2OC(C)=O)cc1 + CC(C)O + O: 0.525
COC(=O)C1=C(C)NC(C)=C(C(=O)OCC(C)C)C1c1ccccc1[N+](=O)[O-] (centres undefined) + CCCO + O: 8.7
CS(=O)(=O)c1ccc(C(O)C(CF)NC(=O)C(Cl)Cl)cc1 (centres undefined) + CC(C)O + O: 1.84

For the next question, use this molecule.
// solubility (g/100 g solution) value for O=[N+]([O-])c1cc[nH]n1 + CCCO + O : 6.03

###

- MEASUREMENT PROTOCOL: xn = mol fraction of the nth substance listed, in the solute-free solvent
- MEASUREMENT PARAMETERS: 308.15 K; x2 = 0.8
ASSAY METRIC: solubility (g/100 g solution)
Give the figure only, with no unit attached.

CCOC(=O)C1=CC2(CC)CCCN3CCc4c(n1c1ccccc41)C32 (stereo not drawn) + CCO + O: 1.21
O=C(CC(=O)c1ccccc1)c1ccccc1 + CC(C)O + O: 3.69

// next item, solubility (g/100 g solution) requested
For CC1(C)SC2C(NC(=O)C(NC(=O)N3CCNC3=O)c3ccccc3)C(=O)N2C1C(=O)O (stereo not drawn) + CO + CC(C)O the compound record lists solubility (g/100 g solution) as 0.732

###

- MEASUREMENT PROTOCOL: xn = mol fraction of the nth substance listed, in the solute-free solvent
- MEASUREMENT PARAMETERS: 313.15 K; x2 = 0.1666
ASSAY METRIC: solubility (g/100 g solution)

COC(=O)C1=C(C)NC(C)=C(C(=O)OCC(C)C)C1c1ccccc1[N+](=O)[O-] (stereo not given) + CC(C)O + O: 6.22

Alright, here's another molecule for you.
The molecule identified as O=[N+]([O-])c1cc[nH]n1 + CCCO + O registered its solubility (g/100 g solution) at 3.29

###

- MEASUREMENT PROTOCOL: xn = mol fraction of the nth substance listed, in the solute-free solvent
- MEASUREMENT PARAMETERS: 318.15 K; x2 = 0.5454
ASSAY METRIC: solubility (g/100 g solution)
Quick one: just the number, no unit, thanks!

Worked examples, 2 compounds total:
CS(=O)(=O)c1ccc(C(O)C(CF)NC(=O)C(Cl)Cl)cc1 (stereo not given) + CC(C)O + O: 2.32
O=[N+]([O-])c1cc[nH]n1 + CCCO + O: 7.31

Recorded result, COC(=O)C1=C(C)NC(C)=C(C(=O)OCC(C)C)C1c1ccccc1[N+](=O)[O-] (stereo not given) + CC(C)O + O , solubility (g/100 g solution): 11.1

// COC(=O)C1=C(C)NC(C)=C(C(=O)OCC(C)C)C1c1ccccc1[N+](=O)[O-] (stereo not given) + CCCO + O : solubility (g/100 g solution) value = 9.79

Record summary for CC(=O)Nc1ccc(OC(=O)c2ccccc2OC(C)=O)cc1 + CC(C)O + O : reported solubility (g/100 g solution) = 0.642

###

- MEASUREMENT PROTOCOL: xn = mol fraction of the nth substance listed, in the solute-free solvent
- MEASUREMENT PARAMETERS: 278.15 K; x2 = 0.2
Tag: t if measured solubility (g/100 g solution) is not below 0.1, f if it is.

O=C(CC(=O)c1ccccc1)c1ccccc1 + CCO + O: f
O=c1ccc2ccccc2o1 + CC(C)=O + O: t
CC1(C)SC2C(NC(=O)C(NC(=O)N3CCNC3=O)c3ccccc3)C(=O)N2C1C(=O)O (stereo unspecified) + CCO + CC(C)O: f

Exam item: Textbook exercise: given the entry O=c1ccc2ccccc2o1 + CO + O , state whether its solubility (g/100 g solution) is greater than or equal to 0.1.
Marked response: t

Exam item: Tell me whether solubility (g/100 g solution) is at least 0.1 here: O=C(CC(=O)c1ccccc1)c1ccccc1 + CO + O
Marked response: f

###

- MEASUREMENT PROTOCOL: xn = mol fraction of the nth substance listed, in the solute-free solvent
- MEASUREMENT PARAMETERS: 283.15 K; x2 = 0.2307
ASSAY METRIC: solubility (g/100 g solution)
Answer with a number only.

Some compounds with recorded solubility (g/100 g solution):
O=[N+]([O-])c1cc[nH]n1 + CCCO + O: 1.35
CS(=O)(=O)c1ccc(C(O)C(CF)NC(=O)C(Cl)Cl)cc1 (stereo not given) + CC(C)O + O: 0.317
O=c1[nH]cc(F)c(=O)[nH]1 + CCCO + C1CCOC1: 0.148

The reported value for CC(=O)Nc1ccc(OC(=O)c2ccccc2OC(C)=O)cc1 + CC(C)O + O in terms of solubility (g/100 g solution) is 0.0489

According to the records, this compound COC(=O)C1=C(C)NC(C)=C(C(=O)OCC(C)C)C1c1ccccc1[N+](=O)[O-] (stereo not given) + CCCO + O displays solubility (g/100 g solution) of 2.05

###

- MEASUREMENT PROTOCOL: xn = mol fraction of the nth substance listed, in the solute-free solvent
- MEASUREMENT PARAMETERS: 308.15 K; x2 = 0.3698
ASSAY METRIC: solubility (g/100 g solution)
Form rule: numeric answer, no unit written next to it.

Worked examples, 3 molecules total:
O=[N+]([O-])c1cc[nH]n1 + CCO + O: 2.5
COC(=O)C1=C(C)NC(C)=C(C(=O)OCC(C)C)C1c1ccccc1[N+](=O)[O-] (centres undefined) + CCO + O: 5.31
CC(=O)Nc1ccc(OC(=O)c2ccccc2OC(C)=O)cc1 + CCO + O: 0.424

GET /value?item= CS(=O)(=O)c1ccc(C(O)C(CF)NC(=O)C(Cl)Cl)cc1 (centres undefined) + CCO + O &field=solubility (g/100 g solution) returns 3.02

###

- MEASUREMENT PROTOCOL: xn = mol fraction of the nth substance listed, in the solute-free solvent
- MEASUREMENT PARAMETERS: 283.15 K; x2 = 0.03225
ASSAY METRIC: solubility (g/100 g solution)
Enter the number alone.

Worked cases, solubility (g/100 g solution) given:
CC(=O)Nc1ccc(OC(=O)c2ccccc2OC(C)=O)cc1 + CC(C)O + O: 0.00407
COC(=O)C1=C(C)NC(C)=C(C(=O)OCC(C)C)C1c1ccccc1[N+](=O)[O-] (centres undefined) + CCCO + O: 0.174
CS(=O)(=O)c1ccc(C(O)C(CF)NC(=O)C(Cl)Cl)cc1 (centres undefined) + CC(C)O + O: 0.109

Below: the item to evaluate.
Just so you know, measured solubility (g/100 g solution) for O=[N+]([O-])c1cc[nH]n1 + CCCO + O came out at 0.274

###

- MEASUREMENT PROTOCOL: xn = mol fraction of the nth substance listed, in the solute-free solvent
- MEASUREMENT PARAMETERS: 308.15 K; x2 = 0.1666
Respond with MET for solubility (g/100 g solution) values of 4 and above, NOT MET for values below.

Answered examples (4):
CC(=O)Nc1ccc(OC(=O)c2ccccc2OC(C)=O)cc1 + CC(C)O + O: NOT MET
COC(=O)C1=C(C)NC(C)=C(C(=O)OCC(C)C)C1c1ccccc1[N+](=O)[O-] (stereo not given) + CC(C)O + O: MET
COC(=O)C1=C(C)NC(C)=C(C(=O)OCC(C)C)C1c1ccccc1[N+](=O)[O-] (stereo not given) + CCCO + O: MET
CS(=O)(=O)c1ccc(C(O)C(CF)NC(=O)C(Cl)Cl)cc1 (stereo not given) + CC(C)O + O: NOT MET

Exam item: Does solubility (g/100 g solution) meet or surpass 4 for O=[N+]([O-])c1cc[nH]n1 + CCCO + O ?
Marked response: NOT MET
